Record type: MIC measurement. Applies to: Enterobacter aerogenes ATCC 13048
OBSERVATION_TYPE: MIC

1) CC[C@H]1OC(=O)[C@H](C)[C@@H](O[C@H]2C[C@@](C)(OC)[C@@H](O)[C@H](C)O2)[C@H](C)[C@@H](O[C@@H]2O[C@H](C)C[C@H](N(C)C)[C@H]2O)[C@](C)(O)C[C@@H](C)C(=O)[C@H](C)[C@@H](O)[C@]1(C)O
100 µg/mL
2) CC[C@H]1OC(=O)[C@H](C)[C@@H](O[C@H]2C[C@@](C)(OC)C[C@H](C)O2)[C@H](C)[C@@H](O[C@@H]2O[C@H](C)C[C@H](N(C)CC)[C@H]2O)[C@@]2(C)C[C@H](C)C(O2)[C@H](C)[C@@H](O)[C@]1(C)O
> 100 µg/mL
3) CC[C@H]1OC(=O)[C@H](C)[C@@H](O[C@H]2C[C@@](C)(OC)C[C@H](C)O2)[C@H](C)[C@@H](O[C@@H]2O[C@H](C)C[C@H](N(C)CC)[C@H]2O)[C@@]2(C)C[C@@H](C)C(O2)[C@H](C)[C@@H](O)[C@]1(C)O
> 100 µg/mL
4) CC[C@H]1OC(=O)[C@H](C)[C@@H](O[C@H]2C[C@@](C)(OC)C[C@H](C)O2)[C@H](C)[C@@H](O[C@@H]2O[C@H](C)C[C@H](N(C)CC)[C@H]2O)[C@@]2(C)CC(C)=C(O2)[C@H](C)[C@@H](O)[C@H]1C
> 100 µg/mL
